pIC50 reference
System: Capan-1 (Pancreatic Carcinoma)
Experiment: Sulforhodamine B cytotoxicity assay, Capan-1
Type: cell-based
Details: Homo sapiens, 72 hours
Note on units: pIC50 is unitless, being -log10 of a concentration expressed in mol/L.

Below, 3 compounds whose answers are already recorded.
compound="CC1=C(C)C(=O)C2=C(C#CCCCC(O)C#C2)C1=O (stereo not shown)" measurement=5.51
compound="Cc1c(C)c(O)c2c(c1O)C#CCCCC(O)C#C2 (stereo not shown)" measurement=4.89
compound="Cc1c(C)c(OC(=O)C(C)(C)C)c2c(c1OC(=O)C(C)(C)C)C#CCCCC(O)C#C2 (stereo not shown)" measurement=4.89

Query compound follows.
Could you tell me which pIC50 is on file for CC1=C(C)C(=O)C2=C(C#CCCCC(=O)C#C2)C1=O ?
4.00
